target_system: prion protein PrP (PrP^C, SHaPrP) (Mesocricetus auratus)
Construct: gene PRNP
Sequence (P04273 90-231 limits assumed): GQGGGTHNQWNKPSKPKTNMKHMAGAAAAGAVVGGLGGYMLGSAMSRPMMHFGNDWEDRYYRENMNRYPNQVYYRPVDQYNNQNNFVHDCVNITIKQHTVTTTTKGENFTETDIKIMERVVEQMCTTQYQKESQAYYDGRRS
Type: binding
pKd: −log10 of the molar value.

| compound | pKd |
| --- | --- |
| C[n+]1ccc(-c2c3nc(c(-c4cc[n+](C)cc4)c4ccc([nH]4)c(-c4cc[n+](C)cc4)c4nc(c(-c5cc[n+](C)cc5)c5ccc2[nH]5)C=C4)C=C3)cc1.[Fe+3] [Fe-TMPyP] | 5.05 |
